test system: Salmonella typhimurium; test: Genotoxicity in Salmonella typhimurium TAMix by Ames test in presence of S9 fractions; format: toxicity, organism-based, S9 Fraction; details: salmonella enterica subsp. enterica serovar typhimurium

[
  {
    "MOLECULE_SMILES": "O=C(Nc1cccnn1)N1CCN(Cc2cccc(Oc3ccc(Cl)cc3)c2)CC1",
    "Activity": "Non-toxic"
  },
  {
    "MOLECULE_SMILES": "O=C(Nc1cc2nccn2cn1)N1CCN(Cc2cccc(Oc3ccc(Cl)cc3)c2)CC1",
    "Activity": "Non-toxic"
  },
  {
    "MOLECULE_SMILES": "O=C(Nc1ccc2nccn2c1)N1CCN(Cc2cccc(Oc3ccc(Cl)cc3)c2)CC1",
    "Activity": "Non-toxic"
  },
  {
    "MOLECULE_SMILES": "O=C(Nc1cccnc1)N1CCN(Cc2cccc(Oc3ccc(Cl)cc3)c2)CC1",
    "Activity": "Non-toxic"
  },
  {
    "MOLECULE_SMILES": "O=C(Nc1cccc2nsnc12)N1CCN(Cc2cccc(Oc3ccc(Cl)cc3)c2)CC1",
    "Activity": "Non-toxic"
  },
  {
    "MOLECULE_SMILES": "O=C(Nc1cn2ccccc2n1)N1CCN(Cc2cccc(Oc3ccc(Cl)cc3)c2)CC1",
    "Activity": "Non-toxic"
  },
  {
    "MOLECULE_SMILES": "O=C(Nc1cccn2ccnc12)N1CCN(Cc2cccc(Oc3ccc(Cl)cc3)c2)CC1",
    "Activity": "Non-toxic"
  },
  {
    "MOLECULE_SMILES": "O=C(Nc1nnn[nH]1)N1CCN(Cc2cccc(Oc3ccc(Cl)cc3)c2)CC1",
    "Activity": "Non-toxic"
  },
  {
    "MOLECULE_SMILES": "O=C(Nc1ccnc2nccn12)N1CCN(Cc2cccc(Oc3ccc(Cl)cc3)c2)CC1",
    "Activity": "Non-toxic"
  },
  {
    "MOLECULE_SMILES": "O=C(Nc1cnc2cc[nH]c2c1)N1CCN(Cc2cccc(Oc3ccc(Cl)cc3)c2)CC1",
    "Activity": "Toxic"
  },
  {
    "MOLECULE_SMILES": "O=C(Nc1nocc1Cl)N1CCN(Cc2cccc(Oc3ccc(Cl)cc3)c2)CC1",
    "Activity": "Toxic"
  },
  {
    "MOLECULE_SMILES": "O=C(Nc1noc2ccccc12)N1CCN(Cc2cccc(Oc3ccc(Cl)cc3)c2)CC1",
    "Activity": "Non-toxic"
  },
  {
    "MOLECULE_SMILES": "O=C(Nc1cccc2nccn12)N1CCN(Cc2cccc(Oc3ccc(Cl)cc3)c2)CC1",
    "Activity": "Non-toxic"
  },
  {
    "MOLECULE_SMILES": "O=C(Nc1ccccc1)N1CCN(Cc2cccc(Oc3ccc(Cl)cc3)c2)CC1",
    "Activity": "Non-toxic"
  },
  {
    "MOLECULE_SMILES": "O=C(Nc1cncc2ccccc12)N1CCN(Cc2cccc(Oc3ccc(Cl)cc3)c2)CC1",
    "Activity": "Toxic"
  },
  {
    "MOLECULE_SMILES": "O=C(Nc1noc2cnccc12)N1CCN(Cc2cccc(Oc3ccc(Cl)cc3)c2)CC1",
    "Activity": "Non-toxic"
  },
  {
    "MOLECULE_SMILES": "Cc1nc2cc(NC(=O)N3CCN(Cc4cccc(Oc5ccc(Cl)cc5)c4)CC3)ccc2o1",
    "Activity": "Toxic"
  },
  {
    "MOLECULE_SMILES": "O=C(Nc1noc2cccnc12)N1CCN(Cc2cccc(Oc3ccc(Cl)cc3)c2)CC1",
    "Activity": "Non-toxic"
  },
  {
    "MOLECULE_SMILES": "O=C(Nc1cnccn1)N1CCN(Cc2cccc(Oc3ccc(Cl)cc3)c2)CC1",
    "Activity": "Non-toxic"
  },
  {
    "MOLECULE_SMILES": "O=C(Nc1cccc2cn[nH]c12)N1CCN(Cc2cccc(Oc3ccc(Cl)cc3)c2)CC1",
    "Activity": "Toxic"
  },
  {
    "MOLECULE_SMILES": "O=C(Nc1ccn2ccnc2c1)N1CCN(Cc2cccc(Oc3ccc(Cl)cc3)c2)CC1",
    "Activity": "Toxic"
  },
  {
    "MOLECULE_SMILES": "O=C(Nc1cnc2[nH]ccc2c1)N1CCN(Cc2cccc(Oc3ccc(Cl)cc3)c2)CC1",
    "Activity": "Toxic"
  },
  {
    "MOLECULE_SMILES": "O=C(Nc1ccn2ccnc2n1)N1CCN(Cc2cccc(Oc3ccc(Cl)cc3)c2)CC1",
    "Activity": "Non-toxic"
  },
  {
    "MOLECULE_SMILES": "O=C(Nc1noc2ccncc12)N1CCN(Cc2cccc(Oc3ccc(Cl)cc3)c2)CC1",
    "Activity": "Non-toxic"
  },
  {
    "MOLECULE_SMILES": "O=C(Nc1noc2ncccc12)N1CCN(Cc2cccc(Oc3ccc(Cl)cc3)c2)CC1",
    "Activity": "Non-toxic"
  },
  {
    "MOLECULE_SMILES": "O=C(Nc1cnc2cccnn12)N1CCN(Cc2cccc(Oc3ccc(Cl)cc3)c2)CC1",
    "Activity": "Non-toxic"
  },
  {
    "MOLECULE_SMILES": "O=C(Nc1cc[nH]n1)N1CCN(Cc2cccc(Oc3ccc(Cl)cc3)c2)CC1",
    "Activity": "Non-toxic"
  },
  {
    "MOLECULE_SMILES": "O=C(Nc1cnc2ccccn12)N1CCN(Cc2cccc(Oc3ccc(Cl)cc3)c2)CC1",
    "Activity": "Non-toxic"
  },
  {
    "MOLECULE_SMILES": "O=C(Nc1ccon1)N1CCN(Cc2cccc(Oc3ccc(Cl)cc3)c2)CC1",
    "Activity": "Non-toxic"
  },
  {
    "MOLECULE_SMILES": "O=C(Nc1cccc2nonc12)N1CCN(Cc2cccc(Oc3ccc(Cl)cc3)c2)CC1",
    "Activity": "Toxic"
  }
]
